# MEASUREMENT TARGET: T1, human TREM2 (human, UniProt Q9NZC2 19-174, limits assumed)
# T1 construct: also called triggering receptor expressed on myeloid cells 2
# T1 sequence: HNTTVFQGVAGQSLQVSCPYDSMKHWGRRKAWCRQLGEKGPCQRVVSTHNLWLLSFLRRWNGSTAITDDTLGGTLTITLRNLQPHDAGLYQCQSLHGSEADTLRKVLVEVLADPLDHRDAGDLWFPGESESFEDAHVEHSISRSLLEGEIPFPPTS
# ASSAY EXPLANATION: 2nd screen, 100 nM

{"BINDER": "V55 (antibody, V domains shown, also called 6E7 variant V55) VH: EVQLVQSGAEVKKPGESLKISCKGSGYSFTSYWIAWVRQMPGKGLEWMGIIYPGDSDTIYSPSHQGQVTISADKSISTAYLQWSSLKASDTAMYFCARQRTFYYDSSDYFDYWGQGTLVTVSS VL: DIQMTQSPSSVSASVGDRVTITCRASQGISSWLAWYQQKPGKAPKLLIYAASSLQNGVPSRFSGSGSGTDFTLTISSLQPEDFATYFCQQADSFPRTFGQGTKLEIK", "Binding Signal": "0.66 fold over 6E7 parental antibody"}
{"BINDER": "V11 (antibody, V domains shown, also called 6E7 variant V11) VH: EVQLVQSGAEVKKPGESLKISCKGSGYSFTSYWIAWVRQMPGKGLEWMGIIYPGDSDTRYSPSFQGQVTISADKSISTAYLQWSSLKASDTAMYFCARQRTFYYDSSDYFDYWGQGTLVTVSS VL: DIQMTQSPSSVSASVGDRVTITCRASQGISSWLAWYQQKPGKAPKLLIYAASSLQNGVPSRFSGSGSGTDFTLTISSLQPEDFATYFCQQAASFPRTFGQGTKLEIK", "Binding Signal": "0.42 fold over 6E7 parental antibody"}
{"BINDER": "V83 (antibody, V domains shown, also called 6E7 variant V83) VH: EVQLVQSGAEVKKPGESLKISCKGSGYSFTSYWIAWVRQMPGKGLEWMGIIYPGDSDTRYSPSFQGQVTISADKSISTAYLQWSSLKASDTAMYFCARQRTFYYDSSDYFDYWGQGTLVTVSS VL: DIQMTQSPSSVSASVGDRVTITCRASQGISSWLAWYQQKPGKAPKLLIYAASSLQNGVPSRFSGSGSGTDFTLTISSLQPEDFATYFCQQAVSFPRTFGQGTKLEIK", "Binding Signal": "0.29 fold over 6E7 parental antibody"}
